Entries and their measured GI50 follow.
- Tested on: Ba/F3 cells expressing EGFR mutations
- Assay details: Cell proliferation assay, Ba/F3 cells expressing EGFR mutations (CellTiter-Glo, 72 hours)
- Type: cell-based
- Applied conditions: BaF3 cells, EGFR L858R-T790M, CellTiter-Glo, read-out: L858R-T790M/BaF3 GI50

[
  {
    "Compound": "CCN1CCN(c2ccc3nc4n(c3c2)C23CCC(CN(CCOc5c(cnn5C)-c5cc(cn(C)c5=O)C(=O)N4)C2)C3)CC1 (single isomer, unassigned) [Example A107A]",
    "Value units": "nM",
    "GI50": 332
  },
  {
    "Compound": "CN1CCCC12CN(c1ccc3nc4n(c3c1)C13CCC(CN(CCOc5c(cnn5C)-c5cc(cn(C)c5=O)C(=O)N4)C1)C3)C2 (single isomer, unassigned) [Example A76B]",
    "Value units": "nM",
    "GI50": 39
  },
  {
    "Compound": "CN1CCC2(CCN(c3ccc4nc5n(c4c3)C34CCC(CN(CCOc6c(cnn6C)-c6cc(cn(C)c6=O)C(=O)N5)C3)C4)C2)C1 (single isomer, unassigned) [Example A81A]",
    "Value units": "nM",
    "GI50": 350
  },
  {
    "Compound": "CN1CCC2CN(c3ccc4nc5n(c4c3)C34CCC(CN(CCOc6c(cnn6C)-c6cc(cn(C)c6=O)C(=O)N5)C3)C4)CC21 (single isomer, unassigned) [Example A79B]",
    "Value units": "nM",
    "GI50": 37
  }
]

----------
- Target or test system: EGFR[T790M/C797S/d746-750] (Homo sapiens, UniProt P00533, C797S/DEL746-750/T790M)
- Construct: purchased Carna Bio
- Sequence (P00533 with tags, fused parts or gaps DEL746-750/T790M/C797S limits assumed): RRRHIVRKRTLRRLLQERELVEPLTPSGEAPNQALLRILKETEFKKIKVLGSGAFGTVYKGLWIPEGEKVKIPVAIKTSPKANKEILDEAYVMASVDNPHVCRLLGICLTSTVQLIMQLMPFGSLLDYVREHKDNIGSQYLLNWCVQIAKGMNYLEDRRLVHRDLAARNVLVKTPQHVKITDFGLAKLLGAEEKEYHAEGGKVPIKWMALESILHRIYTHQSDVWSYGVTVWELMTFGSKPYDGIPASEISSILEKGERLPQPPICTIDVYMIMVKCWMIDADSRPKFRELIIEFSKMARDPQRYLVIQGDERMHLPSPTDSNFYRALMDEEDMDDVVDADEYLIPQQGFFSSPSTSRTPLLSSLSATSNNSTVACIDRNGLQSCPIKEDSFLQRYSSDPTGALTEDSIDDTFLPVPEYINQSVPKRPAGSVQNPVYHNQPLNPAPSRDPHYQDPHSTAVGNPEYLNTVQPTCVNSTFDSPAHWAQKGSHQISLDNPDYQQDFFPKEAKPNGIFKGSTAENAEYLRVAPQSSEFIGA
- Assay details: Inhibition of EGFR[T790M/C797S/d746-750] biochemical enzymatic activity (HTRF)
- Applied conditions: EGFR T790M-C797S-Del19, 1 mM ATP, 1 h, room temperature, read-out: IC50 (nM) @T790M - C797S - Del19
Measured endpoint: log10 IC50 (log10 of the value in nM)

[
  {
    "Compound": "CN1CCN(c2ccc3nc4n(c3c2)C23CCC(CC2)CN(CCOc2c(cnn2C)-c2cc(cn(C)c2=O)C(=O)N4)C3)CC1 [Example A75]",
    "Target or test system": "EGFR[T790M/C797S/d746-750] (Homo sapiens, UniProt P00533, C797S/DEL746-750/T790M)",
    "log10 IC50": 0.53
  },
  {
    "Compound": "C[C@@H]1CCCOc2c(cnn2C)-c2cc(cn(C)c2=O)C(=O)Nc2nc3ccc(N4CCC5(CCN(C)C5)CC4)cc3n2C1 [Example A35]",
    "Target or test system": "EGFR[T790M/C797S/d746-750] (Homo sapiens, UniProt P00533, C797S/DEL746-750/T790M)",
    "log10 IC50": 0.30
  },
  {
    "Compound": "C[C@@H]1CCCOc2c(cnn2C)-c2cc(cn(C)c2=O)C(=O)Nc2nc3ccc(N4CCN(CC(F)(F)F)CC4)cc3n2C1 [Example A53]",
    "Target or test system": "EGFR[T790M/C797S/d746-750] (Homo sapiens, UniProt P00533, C797S/DEL746-750/T790M)",
    "log10 IC50": 1.11
  },
  {
    "Compound": "Cn1ncc2c1OCCN1CC3CCC(C3)(C1)n1c(nc3ccc(N4CCC(N5CC(F)C5)C4)cc31)NC(=O)c1cc-2c(=O)n(C)c1 (single isomer, unassigned) [Example A94B1]",
    "Target or test system": "EGFR[T790M/C797S/d746-750] (Homo sapiens, UniProt P00533, C797S/DEL746-750/T790M)",
    "log10 IC50": 0.70
  },
  {
    "Compound": "CN1CC2(CCN(c3ccc4nc5n(c4c3)C34CCC(CN(CCOc6c(cnn6C)-c6cc(cn(C)c6=O)C(=O)N5)C3)C4)C2)C1 (single isomer, unassigned) [Example A73B]",
    "Target or test system": "EGFR[T790M/C797S/d746-750] (Homo sapiens, UniProt P00533, C797S/DEL746-750/T790M)",
    "log10 IC50": 0.32
  },
  {
    "Compound": "CN1CCN(C2CCN(c3ccc4nc5n(c4c3)C34CCC(CN(CCOc6c(cnn6C)-c6cc(cn(C)c6=O)C(=O)N5)C3)C4)CC2)CC1 (single isomer, unassigned) [Example A106B]",
    "Target or test system": "EGFR[T790M/C797S/d746-750] (Homo sapiens, UniProt P00533, C797S/DEL746-750/T790M)",
    "log10 IC50": 0.30
  },
  {
    "Compound": "Cn1ncc2c1OCCN1CC3CCC(C3)(C1)n1c(nc3ccc(N4CCC(N5CC(F)C5)C4)cc31)NC(=O)c1cc-2c(=O)n(C)c1 (single isomer, unassigned) [Example A94B2]",
    "Target or test system": "EGFR[T790M/C797S/d746-750] (Homo sapiens, UniProt P00533, C797S/DEL746-750/T790M)",
    "log10 IC50": 0.72
  },
  {
    "Compound": "CN(C)[C@@H]1CCN(c2ccc3nc4n(c3c2)C23CCC(CN(CCOc5c(cnn5C)-c5cc(cn(C)c5=O)C(=O)N4)C2)C3)C1 (single isomer, unassigned) [Example A66D]",
    "Target or test system": "EGFR[T790M/C797S/d746-750] (Homo sapiens, UniProt P00533, C797S/DEL746-750/T790M)",
    "log10 IC50": 0.20
  },
  {
    "Compound": "C[C@@H]1CCCOc2c(cnn2C)-c2cc(cn(C)c2=O)C(=O)Nc2nc3ccc(N4CCNCC4)c(Cl)c3n2C1 [Example A23]",
    "Target or test system": "EGFR[T790M/C797S/d746-750] (Homo sapiens, UniProt P00533, C797S/DEL746-750/T790M)",
    "log10 IC50": 0.43
  },
  {
    "Compound": "C[C@@H]1CCCOc2c(cnn2C)-c2cc(cn(C)c2=O)C(=O)Nc2nc3ccc(Br)cc3n2C1 [Example M3]",
    "Target or test system": "EGFR[T790M/C797S/d746-750] (Homo sapiens, UniProt P00533, C797S/DEL746-750/T790M)",
    "log10 IC50": 1.28
  }
]
